Target: human PD-L1 (Homo sapiens (Human))
Sequence (Q9NZQ7 19-290): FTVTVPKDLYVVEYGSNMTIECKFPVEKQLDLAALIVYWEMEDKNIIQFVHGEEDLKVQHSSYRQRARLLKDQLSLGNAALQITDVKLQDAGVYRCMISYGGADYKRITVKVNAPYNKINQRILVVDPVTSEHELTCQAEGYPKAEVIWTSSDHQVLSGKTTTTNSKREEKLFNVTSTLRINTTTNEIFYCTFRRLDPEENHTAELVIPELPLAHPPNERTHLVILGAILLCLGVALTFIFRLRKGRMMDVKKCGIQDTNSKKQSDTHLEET
Test: T cell activation luciferase reporter cell culture system (T Cell Activation Assay)
Assay type: cell-based
Conditions: luciferase reporter assay; PD-L1 aAPC/CHO-K1 cells with PD-1 effector Jurkat T cells
Assay Metric: pEC50
Keep it numeric: pEC50 is minus log10 of the concentration in mol/L.

### Prompt Which pEC50 is reported for this molecule? "COc1cc(-c2nccc(-c3cccc(-c4ccc5c(CN(C)C6CCOCC6)cn(C)c5n4)c3Cl)c2Cl)ccc1CNC1CCOCC1"
### Response 6.63

### Prompt Which pEC50 is reported for this molecule? "CNCc1ccc(-c2cccc(-c3ccnc(-c4ccc(CNC5CCN(C(C)=O)CC5)c(OC)c4)c3Cl)c2Cl)nc1OC"
### Response 7.69

### Prompt Which pEC50 is reported for this molecule? "COc1nc(-c2ccnc(-c3cccc4c3CC[C@@H]4Oc3nc(OC)c(CNC4(C(=O)O)CC4)cc3C(F)(F)F)c2Cl)ccc1CNC[C@@H]1CCC(=O)N1"
### Response 7.78

### Prompt Which pEC50 is reported for this molecule? "COc1nc(-c2cccc(-c3ccnc(-c4ccc(CNC[C@@H]5CCC(=O)N5)c(OC(F)F)c4)c3Cl)c2Cl)ccc1CNC[C@@H]1CCC(=O)N1"
### Response 7.41

### Prompt Which pEC50 is reported for this molecule? "COc1nc(-c2cccc(-c3ccnc(-c4cc(OC)c5nc(CN6CC7(CCC(=O)N7)C6)cn5c4)c3Cl)c2Cl)ccc1CN1CC2(CCC(=O)N2)C1"
### Response 6.69

* * *

Give measured pIC50 for each item. Keep answers brief.
Biological target: PD-L1 His protein / PD-1 Fc protein (Homo sapiens (Human), UniProt Q9NZQ7)
Test: HTRF Assay (PD-1/PD-L1 interaction)
Assay type: binding
Details: PD-L1 His 6 nM, PD-1 Fc 6 nM
Keep it numeric: pIC50 is minus log10 of the concentration in mol/L.

### Prompt Which pIC50 is reported for this molecule? COc1cc(-c2nccc(-c3cccc(-c4ccc(CN5CC(C)(O)C5)c(OC)n4)c3Cl)c2Cl)ccc1CN1CC2(CNC(=O)C2)C1 [Example 518]
### Response 8.62

### Prompt Which pIC50 is reported for this molecule? COc1nc(-c2cccc(-c3ccnc(-c4cc(OC)c5nc(CN6CC7(CC(O)C7)C6)nn5c4)c3Cl)c2Cl)ccc1CNC(C)C [Compound 753]
### Response 9.70

### Prompt Which pIC50 is reported for this molecule? COc1cc(-c2nccc(-c3cccc(NC(=O)c4ccc(CNC5CC6(C5)CN(C(C)=O)C6)cn4)c3Cl)c2Cl)ccc1CNC1CC2(C1)CN(C(C)=O)C2 (stereo not drawn) [Example 706]
### Response 9.70

### Prompt Which pIC50 is reported for this molecule? COc1cc(-c2ncnc(-c3cccc(-c4ccc(CN[C@H]5C[C@H](O)C5)c(OC)n4)c3Cl)c2Cl)ccc1CN[C@H]1C[C@H](O)C1 [Example 593]
### Response 9.80

### Prompt Which pIC50 is reported for this molecule? COc1cc(-c2nccc(-c3cccc(-c4ccc(CN5CC6(CNC(=O)C6)C5)c(OC)n4)c3Cl)c2Cl)ccc1CN1CCC(NC(C)=O)CC1 [Example 400]
### Response 9.57

### Prompt Which pIC50 is reported for this molecule? COc1nc(-c2ccnc(-c3cccc4c3CC[C@@H]4Oc3nc(OC)c(CNC[C@@H](C)O)cc3C(F)(F)F)c2Cl)ccc1CNC[C@@H]1CCC(=O)N1 [Compound 165]
### Response 9.46

### Prompt Which pIC50 is reported for this molecule? COc1nc(-c2cccc(-c3ccnc(-c4ccc5c(c4)CNC5)c3Cl)c2Cl)ccc1CNCCO [Compound 160]
### Response 9.06

### Prompt Which pIC50 is reported for this molecule? COc1cc(-c2nccc(-c3cccc(-c4ccc5c(OC)c(CNC6CCN(C(C)=O)CC6)cc(Cl)c5n4)c3Cl)c2Cl)ccc1CNC[C@@H]1CCC(=O)N1 [Example 241]
### Response 7.84

### Prompt Which pIC50 is reported for this molecule? COc1nc(-c2ccnc(-c3cccc4c3CCC[C@@H]4Nc3nc(OC)c(CNC[C@H](C)O)cc3C(F)(F)F)c2Cl)ccc1CNC[C@@H]1CCC(=O)N1 [Example 707]
### Response 7.27

### Prompt Which pIC50 is reported for this molecule? COc1cc(-c2nccc(-c3cccc(-c4ccc(CN5CC6(C5)CN(C(C)=O)C6)c(OC)n4)c3Cl)c2Cl)ccc1CNC1CCN(C(C)=O)CC1 [Example 483]
### Response 8.58

### Prompt Which pIC50 is reported for this molecule? COc1cc(-c2nccc(-c3cccc(-c4ccc(CNC[C@@H]5CCC(=O)N5)c(OC)n4)c3C(F)(F)F)c2Cl)ccc1CNC[C@@H]1CCC(=O)N1 [Example 610]
### Response 8.82

### Prompt Which pIC50 is reported for this molecule? COc1cc(-c2nccc(-c3cccc(-c4ccc(CNC5CCC(F)(F)CC5)c(OC)n4)c3Cl)c2Cl)ccc1CNC1CCC(F)(F)CC1 [Example 327]
### Response 8.77
